- test system: Human GLP-1 receptor (Homo sapiens, UniProt P43220)
- Construct: The full-length cDNA was cloned in pcDNA3.1(+); expressed in transfected cells
- Sequence (P43220 24-463): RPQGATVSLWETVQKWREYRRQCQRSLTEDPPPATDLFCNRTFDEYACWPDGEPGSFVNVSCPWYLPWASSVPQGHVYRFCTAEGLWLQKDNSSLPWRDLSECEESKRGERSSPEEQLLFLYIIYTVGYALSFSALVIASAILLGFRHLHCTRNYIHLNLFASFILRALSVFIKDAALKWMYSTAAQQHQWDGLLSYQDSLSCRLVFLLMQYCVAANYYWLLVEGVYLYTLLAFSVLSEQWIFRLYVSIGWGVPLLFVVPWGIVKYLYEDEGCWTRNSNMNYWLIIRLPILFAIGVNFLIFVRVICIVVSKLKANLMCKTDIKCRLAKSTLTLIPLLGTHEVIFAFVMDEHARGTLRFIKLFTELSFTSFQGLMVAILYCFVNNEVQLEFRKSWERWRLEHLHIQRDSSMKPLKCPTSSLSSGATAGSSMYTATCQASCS
- method: In vitro Human GLP-1 R agonist activity (cyclic AMP determination) in CHO/human GLP1R cells
- Format: cell-based
- assay context: 10 nM test compound
readout label: Human GLP-1 R activity (cAMP release), % activity with respect to control (%)
State the answer as a number, implicitly in %.

input: Please give the measured Human GLP-1 R activity (cAMP release), % activity with respect to control for this molecule: CCc1cc(OC)ccc1-c1ccc(CC(NC(=O)[C@H](CC(=O)O)NC(=O)[C@H](CO)NC(=O)[C@@H](NC(=O)C(C)(Cc2ccccc2F)NC(=O)[C@@H](NC(=O)CNC(=O)C(CCC#N)NC(=O)C(C)(C)NC(=O)[C@@H](N)Cc2c[nH]cn2)[C@H](C)O)[C@@H](C)O)C(=O)NC(CCCc2ccccc2)C(N)=O)cc1 (single isomer, unassigned) [compound 110]
output: 77

Next, consider the following molecule.
input: Please give the measured Human GLP-1 R activity (cAMP release), % activity with respect to control for this molecule: CCc1cc(OC)ccc1-c1ccc(CC(NC(=O)[C@H](CC(=O)O)NC(=O)[C@H](CO)NC(=O)[C@@H](NC(=O)[C@H](Cc2ccccc2)NC(=O)[C@@H](NC(=O)CNC(=O)[C@H](CCC(N)=O)NC(=O)[C@H](CO)NC(=O)[C@@H](N)Cc2c[nH]cn2)[C@@H](C)O)[C@@H](C)O)C(=O)NC(CCCc2ccccc2C(F)(F)F)C(N)=O)cc1 (single isomer, unassigned) [compound 47]
output: 89

---

- method: Stability in human plasma
- Format: in vitro ADME
- assay context: pH 7.8; 2 μM peptidomimetic, pooled human plasma, 37° C.; read-out: half-life (t1/2) when incubated with human plasma
Starred links: 1 amine or outer side, 2 acyl side, 3 side chain; linkers in the order of their positions; H or OH if unused. Non-standard residues stand in square brackets, D forms with d. Residues, ends and D or L forms follow the SMILES beside them. ξ: configuration not given here. ξBip(2'-Et-4'-OMe) = CCc1cc(OC)ccc1-c1ccc(CC(N)C(=O)O)cc1; X1 = O=C(C(CCCc1ccc(C(F)(F)F)cc1F)N[*:1])[*:2]; Aib = CC(C)(N)C(=O)O
readout label: half-life at 2 μM (h)
State the answer as a number, implicitly in h.

Answered examples (2):
input: Please give the measured half-life at 2 μM for this compound: CCc1cc(OC)ccc1-c1ccc(CC(C(=O)N(C)C(CCCc2ccccc2)C(N)=O)N(C)C(=O)[C@H](CC(=O)O)N(C)C(=O)[C@H](CO)NC(=O)[C@@H](NC(=O)C(C)(Cc2ccccc2F)NC(=O)[C@@H](NC(=O)CNC(=O)C(CCC#N)NC(=O)C(C)(C)NC(=O)[C@@H](N)Cc2c[nH]cn2)[C@H](C)O)[C@H](C)O)cc1 (single isomer, unassigned)
output: 8

input: Same for CCc1cc(OC)ccc1-c1ccc(CC(NC(=O)[C@H](CC(=O)O)NC(=O)[C@H](CO)NC(=O)[C@@H](NC(=O)[C@H](Cc2ccccc2)NC(=O)[C@@H](NC(=O)CNC(=O)[C@H](CCC(N)=O)NC(=O)[C@H](C)NC(=O)[C@@H](N)Cc2c[nH]cn2)[C@@H](C)O)[C@@H](C)O)C(=O)NC(CCCc2ccc(Cl)cc2C)C(N)=O)cc1 (single isomer, unassigned)
output: 8

Next, consider the following compound.
input: Please give the measured half-life at 2 μM for this compound: CCc1cc(OC)ccc1-c1ccc(CC(NC(=O)[C@H](CC(=O)O)NC(=O)[C@H](CO)NC(=O)[C@@H](NC(=O)[C@H](Cc2ccccc2)NC(=O)[C@@H](NC(=O)CNC(=O)[C@H](CCC(N)=O)NC(=O)C(C)(C)NC(=O)[C@@H](N)Cc2c[nH]cn2)[C@@H](C)O)[C@@H](C)O)C(=O)NC(CCCc2ccc(C(F)(F)F)cc2F)C(N)=O)cc1 (stereo partly drawn) [compound 65] (H-H[Aib]QGTFTSD[ξBip(2'-Et-4'-OMe)][X1]-NH2)
output: 8

---

- method: Stability in liver microsomes
- Format: in vitro ADME
- assay context: pH 7.8; 2 μM peptidomimetic, human liver microsomes, 37° C.; read-out: half-life (t1/2) when incubated with liver microsomes
- Procedure: Reactions were terminated by the addition of TFA/H2O (15 mL, 10% (v/v)). […] The column was equilibrated with TFA/H20, at a flow rate of 1 mL/min.
Non-standard residues stand in square brackets, D forms with d. Residues, ends and D or L forms follow the SMILES beside them. ξ: configuration not given here. Leu(5,5,5,5',5',5'-F6) = N[C@@H](CC(C(F)(F)F)C(F)(F)F)C(=O)O; ξBip(2'-Et-4'-OMe) = CCc1cc(OC)ccc1-c1ccc(CC(N)C(=O)O)cc1; ξbishPhe(2-F) = NC(CCCc1ccccc1F)C(=O)O; ξαMePhe(2-F) = CC(N)(Cc1ccccc1F)C(=O)O; Aib = CC(C)(N)C(=O)O
readout label: half-life at 2 μM (min)
State the answer as a number, implicitly in min.

input: Please give the measured half-life at 2 μM for this compound: CCc1cc(OC)ccc1-c1ccc(CC(NC(=O)[C@H](CC(=O)O)NC(=O)[C@H](CO)NC(=O)[C@@H](NC(=O)C(C)(Cc2ccccc2F)NC(=O)[C@@H](NC(=O)CNC(=O)[C@H](CC(C(F)(F)F)C(F)(F)F)NC(=O)C(C)(C)NC(=O)[C@H](Cc2c[nH]cn2)NC(C)=O)[C@@H](C)O)[C@@H](C)O)C(=O)NC(CCCc2ccccc2F)C(N)=O)cc1 (stereo partly shown) [compound 212] (Ac-H[Aib][Leu(5,5,5,5',5',5'-F6)]GT[ξαMePhe(2-F)]TSD[ξBip(2'-Et-4'-OMe)][ξbishPhe(2-F)]-NH2)
output: 30

---

# % degradation of peptidomimetics in 24 h when incubated with DPP-IV enzyme per entry
- test system: DPP IV (Homo sapiens)
- Sequence (P27487 whole entry, species assumed): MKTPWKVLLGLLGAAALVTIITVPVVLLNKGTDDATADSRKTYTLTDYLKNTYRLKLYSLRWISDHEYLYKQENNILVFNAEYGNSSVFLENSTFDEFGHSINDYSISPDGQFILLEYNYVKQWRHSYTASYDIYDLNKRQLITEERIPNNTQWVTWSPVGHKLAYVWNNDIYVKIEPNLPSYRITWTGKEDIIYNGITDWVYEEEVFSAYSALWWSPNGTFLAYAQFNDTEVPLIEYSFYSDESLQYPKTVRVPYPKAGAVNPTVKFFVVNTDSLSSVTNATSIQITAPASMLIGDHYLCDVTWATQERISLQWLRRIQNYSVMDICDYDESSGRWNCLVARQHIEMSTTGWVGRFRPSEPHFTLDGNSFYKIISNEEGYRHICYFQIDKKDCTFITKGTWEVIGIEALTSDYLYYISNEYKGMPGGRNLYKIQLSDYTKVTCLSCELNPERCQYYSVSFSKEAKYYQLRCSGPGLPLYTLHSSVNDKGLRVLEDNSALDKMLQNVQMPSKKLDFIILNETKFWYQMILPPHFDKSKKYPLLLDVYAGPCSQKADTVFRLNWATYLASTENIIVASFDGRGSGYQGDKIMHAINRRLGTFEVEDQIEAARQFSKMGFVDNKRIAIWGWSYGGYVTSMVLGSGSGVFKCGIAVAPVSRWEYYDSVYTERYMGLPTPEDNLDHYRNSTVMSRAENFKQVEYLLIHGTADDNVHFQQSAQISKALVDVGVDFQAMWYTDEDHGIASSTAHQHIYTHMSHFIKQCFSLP
- method: Stability against DPP IV enzyme
- Assay type: in vitro ADME
- assay context: 2 μM peptidomimetic, 37° C., 24 h
State the answer as a number, implicitly in %.

input: Please give the measured % degradation of peptidomimetics in 24 h when incubated with DPP-IV enzyme for this molecule: CCc1cc(OC)ccc1-c1ccc(CC(NC(=O)[C@H](CC(=O)O)NC(=O)[C@H](CO)NC(=O)[C@@H](NC(=O)[C@H](Cc2ccccc2)NC(=O)[C@@H](NC(=O)CNC(=O)[C@H](CCC(N)=O)NC(=O)[C@H](C)NC(=O)[C@@H](N)Cc2c[nH]cn2)[C@@H](C)O)[C@@H](C)O)C(=O)NC(CCCc2ccc(Cl)cc2C)C(N)=O)cc1 (single isomer, unassigned) [compound 16]
output: 70

input: Same for CCc1cc(OC)ccc1-c1ccc(CC(CNC(CCCc2ccccc2)C(N)=O)NC[C@H](CC(=O)O)NC(=O)[C@H](CO)NC(=O)[C@@H](NC(=O)C(C)(Cc2ccccc2F)NC(=O)[C@@H](NC(=O)CNC(=O)[C@H](CCC(N)=O)NC(=O)C(C)(C)NC(=O)[C@H](Cc2c[nH]cn2)NC(=O)OC)[C@H](C)O)[C@H](C)O)cc1 (single isomer, unassigned) [compound 198]
output: 00

input: Same for CCc1cc(OC)ccc1-c1ccc(CC(NC(=O)[C@H](CC(=O)O)NC(=O)[C@H](CO)NC(=O)[C@@H](NC(=O)C(C)(Cc2ccccc2F)NC(=O)[C@@H](NC(=O)CNC(=O)C(CCC#N)NC(=O)C(C)(C)NC(=O)[C@H](Cc2c[nH]cn2)NC(=O)OC)[C@@H](C)O)[C@@H](C)O)C(=O)NC(CCCc2ccccc2)C(N)=O)cc1 (single isomer, unassigned) [compound 206]
output: 00

input: Same for CCc1cc(OC)ccc1-c1ccc(CC(NC(=O)[C@H](CC(=O)O)NC(=O)[C@H](CO)NC(=O)[C@@H](NC(=O)C(C)(Cc2ccccc2F)NC(=O)[C@@H](NC(=O)CNC(=O)C(CCC#N)NC(=O)C(C)(C)NC(=O)[C@H](Cc2c[nH]cn2)NC(C)=O)[C@@H](C)O)[C@@H](C)O)C(=O)NC(CCCc2ccccc2F)C(N)=O)cc1 (single isomer, unassigned) [compound 207]
output: 00

input: Same for CCc1cc(OC)ccc1-c1ccc(CC(NC(=O)[C@H](CC(=O)O)NC(=O)[C@H](CO)NC(=O)[C@@H](NC(=O)C(C)(Cc2ccccc2F)NC(=O)[C@@H](NC(=O)CNC(=O)[C@H](CC(C(F)(F)F)C(F)(F)F)NC(=O)C(C)(C)NC(=O)[C@@H](N)Cc2c[nH]cn2)[C@@H](C)O)[C@H](C)O)C(=O)NC(CCCc2ccccc2F)C(N)=O)cc1 (single isomer, unassigned) [compound 224]
output: 00

Next, consider the following molecule.
input: Please give the measured % degradation of peptidomimetics in 24 h when incubated with DPP-IV enzyme for this molecule: CCc1cc(OC)ccc1-c1ccc(CC(NC(=O)[C@H](CC(=O)O)NC(=O)[C@H](CO)NC(=O)[C@@H](NC(=O)[C@H](Cc2ccccc2)NC(=O)[C@@H](NC(=O)CNC(=O)C(CCC#N)NC(=O)C(C)(C)NC(=O)[C@@H](N)Cc2c[nH]cn2)[C@@H](C)O)[C@@H](C)O)C(=O)NC(CCCc2ccc(F)cc2F)C(N)=O)cc1 (single isomer, unassigned) [compound 78]
output: 70

Ref: patent US8883963B2
